Molecular target: T1, KRAS G13D (G13D RAS; the same in KRAS, HRAS and NRAS) peptide on HLA-DQA1*05:01 / HLA-DQB1*03:01 (human)
T1 peptide: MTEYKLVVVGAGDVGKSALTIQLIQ
Assay: activation reporter or marker
METRIC: binding result

4400 TCR-20 (TCR, V domains shown) Valpha: QKITQTQPGMFVQEKEAVTLDCTYDTSDPSYGLFWYKQPSSGEMIFLIYQGSYDQQNATEGRYSLNFQKARKSANLVISASQLGDSAMYFCAMRERSGGSYIPTFGRGTSLIVHP Vbeta: DVKVTQSSRYLVKRTGEKVFLECVQDMDHENMFWYRQDPGLGLRLIYFSYDVKMKEKGDIPEGYSVSREKKERFSLILESASTNQTSMYLCASSLGTFNQPQHFGDGTRLSIL: recognises
4400 TCR-J2 (TCR, V domains shown) Valpha: NSVTQMEGPVTLSEEAFLTINCTYTATGYPSLFWYVQYPGEGLQLLLKATKADDKGSNKGFEATYRKETTSFHLEKGSVQVSDSAVYFCALRLSGAGSYQLTFGKGTKLSVIP Vbeta: DVKVTQSSRYLVKRTGEKVFLECVQDMDHENMFWYRQDPGLGLRLIYFSYDVKMKEKGDIPEGYSVSREKKERFSLILESASTNQTSMYLCASSQGNTGELFFGEGSRLTVL: recognises
4400 TCR-A3 (TCR, V domains shown) Valpha: KTTQPNSMESNEEEPVHLPCNHSTISGTDYIHWYRQLPSQGPEYVIHGLTSNVNNRMASLAIAEDRKSSTLILHRATLRDAAVYYCILRAPSGTYKYIFGTGTRLKVLA Vbeta: DVKVTQSSRYLVKRTGEKVFLECVQDMDHENMFWYRQDPGLGLRLIYFSYDVKMKEKGDIPEGYSVSREKKERFSLILESASTNQTSMYLCASRQGNTGELFFGEGSRLTVL: recognises
